target: FGFR2c (fibroblast growth factor receptor 2, isoform IIIc) stably expressed on QhTERT cells (UniProt P21802); assay: flow cytometry on cells overexpressing FGFR2 (same experiment as kd=68 nM, printed with more digits)
Sequence (P21802 22-821): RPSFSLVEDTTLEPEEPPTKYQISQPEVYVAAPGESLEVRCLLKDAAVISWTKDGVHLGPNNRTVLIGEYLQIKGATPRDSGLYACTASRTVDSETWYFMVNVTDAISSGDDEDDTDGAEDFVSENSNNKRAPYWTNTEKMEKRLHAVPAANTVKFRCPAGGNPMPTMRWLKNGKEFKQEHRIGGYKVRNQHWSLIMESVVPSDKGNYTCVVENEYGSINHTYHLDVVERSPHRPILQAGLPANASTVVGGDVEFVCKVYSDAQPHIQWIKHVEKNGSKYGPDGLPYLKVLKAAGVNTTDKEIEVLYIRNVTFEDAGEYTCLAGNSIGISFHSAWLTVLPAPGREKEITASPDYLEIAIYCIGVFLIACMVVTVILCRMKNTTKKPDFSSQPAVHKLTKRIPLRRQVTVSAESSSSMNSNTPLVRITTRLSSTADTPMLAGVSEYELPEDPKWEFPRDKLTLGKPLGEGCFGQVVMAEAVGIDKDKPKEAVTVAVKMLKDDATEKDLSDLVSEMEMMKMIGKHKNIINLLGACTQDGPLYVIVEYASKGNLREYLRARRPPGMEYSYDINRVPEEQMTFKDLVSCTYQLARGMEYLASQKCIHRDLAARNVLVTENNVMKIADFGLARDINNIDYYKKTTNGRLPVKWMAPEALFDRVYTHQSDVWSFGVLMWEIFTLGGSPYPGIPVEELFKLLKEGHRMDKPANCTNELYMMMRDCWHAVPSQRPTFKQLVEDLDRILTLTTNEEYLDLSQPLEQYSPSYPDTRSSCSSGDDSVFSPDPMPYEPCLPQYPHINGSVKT
Where no end group is shown, it is not given here.
PROPERTY: Kd (nM)

INSERT INTO results (binder, property, readout_number) VALUES
  ('SRRPASFRTAREGGGSK(Cy5.5)-NH2 [SRR*-Cy5.5 (peptide … with Cy5.5 attached via a C-terminal GGGSK linker)]', 'Kd', 67.9);

Entry source: patent US20200138979A1
